# Test system: Ba/F3 KIF5B-RET (V804M) cells
# Experiment Description: Cell proliferation inhibition, CellTiter-Glo
# Format: cell-based
# Test Context: Mus musculus, BaF3, 72 hours
Each record is given 1 if its reported GI50 is strictly below 20 nM. Records at or above 20 nM are given -1.

INSERT INTO assay_data (compound, class) VALUES
  ('Cc1cc(Nc2nc(-c3ccc(N4CC5CC(C4)N5Cc4ccn(C)c(=O)c4)nc3)nc3ccccc23)n[nH]1 [Example 27]', -1);

In: Lab log: compare recorded GI50 with 20 nM; is it strictly lower for CCOc1ccc(CN2C3CC2CN(c2ccc(-c4nc(Nc5cc(C)[nH]n5)c5ccccc5n4)cn2)C3)cn1 [Example 24] ?
Out: 1

In: And for COc1ccc(CN2C3CC2CN(c2ccc(-c4nc(Nc5cc(C)[nH]n5)c5sccc5n4)cn2)C3)cn1 [Example 2] ?
Out: 1

In: And for Cc1cc(Nc2nc(-c3ccc(N4CC5CC(C4)N5Cc4ccc(C#N)nc4)nc3)nc3ccccc23)n[nH]1 [Example 9] ?
Out: -1

In: And for Cc1cc(Nc2nc(-c3ccc(N4CC5CC(C4)N5Cc4ncc(C)s4)nc3)nc3ccccc23)n[nH]1 [Example 5] ?
Out: 1

In: And for Cc1cc(Nc2nc(-c3ccc(N4CC5CC(C4)N5Cc4ccc5ncccc5c4)nc3)nc3ccccc23)n[nH]1 [Example 18] ?
Out: -1

In: And for COc1ccc(CN2CCCN(c3ccc(-c4nc(Nc5cc(C)[nH]n5)c5ccccc5n4)cn3)CC2)cn1 [Example 30] ?
Out: -1

In: And for COc1ccc(CN2C3CC2CN(c2ccc(-c4nc(Nc5cc(C(F)(F)F)[nH]n5)c5occc5n4)cn2)C3)cn1 [Example 4] ?
Out: -1

In: And for Cc1ccc(CN2C3CC2CN(c2ccc(-c4nc(Nc5cc(C)[nH]n5)c5ccccc5n4)cn2)C3)cn1 [Example 10] ?
Out: 1

In: And for COc1ccc(CN2C3CC2CN(c2ccc(-c4nc(Nc5cc(C)[nH]n5)c5ccccc5n4)cn2)C3)cn1 [Example 3] ?
Out: 1

In: And for COc1ccc(CN2CCN(c3ccc(-c4nc(Nc5cc(C)[nH]n5)c5ccccc5n4)cn3)CC23CC3)cn1 [Example 37] ?
Out: -1

In: And for COc1cnc(CN2C3CC2CN(c2ccc(-c4nc(Nc5cc(C)[nH]n5)c5ccccc5n4)cn2)C3)cn1 [Example 17] ?
Out: 1

In: And for Cc1csc(CN2C3CC2CN(c2ccc(-c4nc(Nc5cc(C)[nH]n5)c5ccccc5n4)cn2)C3)n1 [Example 19] ?
Out: -1

In: And for Cc1cc(Nc2nc(-c3ccc(N4CC5CC(C4)N5Cc4ccc(F)nc4)nc3)nc3ccccc23)n[nH]1 [Example 23] ?
Out: 1

In: And for COc1ccc(CN2CCN(c3ccc(-c4nc(Nc5cc(C)[nH]n5)c5ccccc5n4)cn3)CC2(C)C)cn1 [Example 29] ?
Out: -1

In: And for Cc1cc(Nc2nc(-c3ccc(N4CC5CC(C4)N5Cc4cc(F)c(OC(C)C)c(F)c4)nc3)nc3ccccc23)n[nH]1 [Example 11] ?
Out: -1

In: And for Cc1cc(Nc2nc(-c3ccc(N4CC5CC(C4)N5Cc4ccc(C(F)(F)F)nc4)nc3)nc3ccccc23)n[nH]1 [Example 8] ?
Out: -1

In: And for Cc1cnc(CN2C3CC2CN(c2ccc(-c4nc(Nc5cc(C)[nH]n5)c5ccccc5n4)cn2)C3)cn1 [Example 26] ?
Out: 1

In: And for COc1ccc(CN2C(C)CN(c3ccc(-c4nc(Nc5cc(C)[nH]n5)c5ccccc5n4)cn3)C[C@H]2C)cn1 (stereo in doubt) [Example 35] ?
Out: -1

* * *

# Target Of Assay: RET (WT) (Homo sapiens, UniProt P07949)
# Construct: human RET (658-end, SIGNALCHEM); purchased SIGNALCHEM
# Sequence (P07949 658-1114 limits assumed): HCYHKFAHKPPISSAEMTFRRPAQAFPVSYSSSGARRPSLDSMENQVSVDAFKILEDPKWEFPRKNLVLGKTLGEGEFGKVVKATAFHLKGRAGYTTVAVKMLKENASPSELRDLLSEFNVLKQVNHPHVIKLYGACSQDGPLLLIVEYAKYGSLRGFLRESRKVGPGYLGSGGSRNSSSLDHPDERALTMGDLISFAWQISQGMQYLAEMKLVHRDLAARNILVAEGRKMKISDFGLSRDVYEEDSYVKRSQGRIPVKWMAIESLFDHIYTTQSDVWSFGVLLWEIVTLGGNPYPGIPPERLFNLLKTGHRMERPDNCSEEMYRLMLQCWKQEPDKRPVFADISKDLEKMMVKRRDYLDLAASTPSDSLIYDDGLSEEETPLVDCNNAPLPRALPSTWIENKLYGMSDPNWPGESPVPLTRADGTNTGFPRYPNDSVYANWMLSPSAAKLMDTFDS
# Experiment Description: RET enzyme inhibitory ability, ADP-Glo kinase assay
# Format: biochemical
# Test Context: ATP 10 μM, 25° C., 1 hour
# Method: The Example compound was reacted with a purified human RET (658-end, SIGNALCHEM) enzyme to evaluate the enzyme inhibitory ability by the following method. […] Luminescence was measured by reacting the enzyme activity reaction solution, the ADP-Glo reaction solution, and the enzyme activity detection solution at a ratio of 2:2:1. […] The IC50 (nM) of each compound was determined by 3 datasets and obtained using Prism (version 7.01, GraphPad) software. […]
Measured Parameter: IC50
Please answer in the form of a number followed by its unit of measurement.

Hey, can you go through the list below and give me IC50 for every item?
1. COc1ccc(CN2CCN(c3ccc(-c4nc(Nc5cc(C)[nH]n5)c5ccccc5n4)cn3)C[C@H]2C)cn1 [Example 36]
2. Cc1cc(Nc2nc(-c3ccc(N4CC5CC(C4)N5Cc4ccc(C(F)(F)F)nc4)nc3)nc3ccccc23)n[nH]1 [Example 8]
3. Cc1cc(Nc2nc(-c3ccc(N4CC5CC(C4)N5Cc4ccc5ncccc5c4)nc3)nc3ccccc23)n[nH]1 [Example 18]
4. COc1ccc(CN2CCN(c3ccc(-c4nc(Nc5cc(C)[nH]n5)c5ccccc5n4)cn3)CC2(C)C)cn1 [Example 29]

Out:
1: 59 nM; 2: 32 nM; 3: 34 nM; 4: 123 nM

* * *

# Target Of Assay: RET (WT) (Homo sapiens)
# Construct: human RET (658-end, SIGNALCHEM); purchased SIGNALCHEM
# Sequence (P07949 658-1114 limits assumed): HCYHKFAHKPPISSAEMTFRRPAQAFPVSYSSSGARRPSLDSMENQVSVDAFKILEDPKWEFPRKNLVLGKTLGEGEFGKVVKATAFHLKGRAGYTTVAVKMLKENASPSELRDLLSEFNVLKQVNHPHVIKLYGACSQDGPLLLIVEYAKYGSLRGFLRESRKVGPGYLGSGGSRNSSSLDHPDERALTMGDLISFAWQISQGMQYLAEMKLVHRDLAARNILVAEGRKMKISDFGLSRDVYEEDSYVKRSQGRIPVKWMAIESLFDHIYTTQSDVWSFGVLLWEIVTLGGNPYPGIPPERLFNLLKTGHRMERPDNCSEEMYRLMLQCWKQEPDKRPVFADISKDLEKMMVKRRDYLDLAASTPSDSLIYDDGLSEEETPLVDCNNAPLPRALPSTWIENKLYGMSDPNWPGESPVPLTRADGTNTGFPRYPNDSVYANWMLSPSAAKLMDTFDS
# Experiment Description: RET enzyme inhibitory ability, ADP-Glo kinase assay
# Format: biochemical
# Test Context: ATP 10 μM, 25° C., 1 hour
Exercise: for every item that follows, state its recorded IC50.
Give bare numbers, in nM.

Before answering, review these 2 worked examples.
INSERT INTO measurements (smiles_notation, measured) VALUES
  ('Cc1ccc(CN2C3CC2CN(c2ccc(-c4nc(Nc5cc(C)[nH]n5)c5ccccc5n4)cn2)C3)cn1', 10),
  ('COc1ccc(CN2C[C@H]3C[C@@H]2CN3c2ccc(-c3nc(Nc4cc(C)[nH]n4)c4ccccc4n3)cn2)cn1', 16);

As a next step, examine the molecule that follows.
In: # input molecule: "COc1ccc(CN2C3CC2CN(c2ccc(-c4nc(Nc5cc(C)[nH]n5)c5ccccc5n4)cn2)C3)cc1" ; wanted: its IC50
Out: 10
